- Assay name: Glutathione reactivity assessed as half life at 250 uM up to 72 hrs by HPLC-MS or NMR analysis
- Assay type: physicochemical
- Test settings: gsh
# t1/2 >= 20 h gives TRUE, anything below gives FALSE

1. Ic1ncc[nH]1 ... FALSE

Query molecule follows.
Lookup: Entry `Ic1nccs1` : is its t1/2 no less than 20 h?
Found: FALSE

----------
- Assay name: Glutathione reactivity assessed as thiol reactivity rate constant at 250 uM up to 72 hrs by HPLC-MS or NMR analysis
- Type: physicochemical
- Parameters: unit not given beside the values
Response field label: string, one of label 1 (K strictly below 0.02) or label 0.

Some entries whose results are on file:
1) N#Cc1cccnc1 ... label 1
2) N#Cc1ccncc1 ... label 0
3) Brc1cncs1 ... label 1
4) Ic1ncco1 ... label 0

Lookup: Does the reported K of the following compound sit strictly below 0.02? `Ic1ncc[nH]1`
Found: label 0

Lookup: Does the reported K of the following compound sit strictly below 0.02? `C#CCn1ccnc1`
Found: label 1

Lookup: Does the reported K of the following compound sit strictly below 0.02? `Ic1nccs1`
Found: label 0

Lookup: Does the reported K of the following compound sit strictly below 0.02? `N#Cc1cnccn1`
Found: label 0
